- TARGET OF ASSAY: Prostaglandin G/H synthase 2 (Homo sapiens, UniProt P35354)
- Sequence (P35354 whole entry): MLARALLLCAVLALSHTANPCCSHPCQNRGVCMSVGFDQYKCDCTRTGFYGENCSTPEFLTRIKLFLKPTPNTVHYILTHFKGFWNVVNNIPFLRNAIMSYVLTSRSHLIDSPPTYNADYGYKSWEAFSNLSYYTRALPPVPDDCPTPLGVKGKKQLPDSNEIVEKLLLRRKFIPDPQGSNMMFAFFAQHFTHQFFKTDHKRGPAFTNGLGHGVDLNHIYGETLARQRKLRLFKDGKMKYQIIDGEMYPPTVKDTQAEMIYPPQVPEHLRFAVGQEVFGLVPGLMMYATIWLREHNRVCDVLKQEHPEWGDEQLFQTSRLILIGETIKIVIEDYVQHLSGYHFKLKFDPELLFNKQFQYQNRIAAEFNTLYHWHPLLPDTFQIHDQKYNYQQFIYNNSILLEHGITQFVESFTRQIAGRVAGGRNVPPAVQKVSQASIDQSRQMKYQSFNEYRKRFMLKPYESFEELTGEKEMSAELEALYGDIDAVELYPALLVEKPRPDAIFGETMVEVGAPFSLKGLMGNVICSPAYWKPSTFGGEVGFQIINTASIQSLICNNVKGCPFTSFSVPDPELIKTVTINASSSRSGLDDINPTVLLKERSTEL
- EXPERIMENTAL DETAILS: Inhibition of COX2 in human whole blood
Measured IC50 accompanies every entry in the list below.
Give just the number in µM; leave the unit off.

stdin: Determine its reported IC50: CC(C(=O)OCCO[N+](=O)[O-])c1ccc2c(c1)[nH]c1ccc(Cl)cc12 (stereo not given)
stdout: 65

stdin: Please look at this compound and report its IC50: CC(C(=O)OCCO[N+](=O)[O-])c1cccc(C(=O)c2ccccc2)c1 (stereo not given)
stdout: 0.77

stdin: Fill in reported IC50 for this entry: CC(COC(=O)C(C)c1ccc2c(c1)[nH]c1ccc(Cl)cc12)O[N+](=O)[O-] (stereo not given)
stdout: 45

stdin: Answer with the recorded IC50 of CC(C(=O)OCCO[N+](=O)[O-])c1ccc(C(=O)c2cccs2)cc1 (stereo not given) only.
stdout: 5.8

stdin: Report IC50 for CC(COC(=O)C(C)c1ccc(C(=O)c2cccs2)cc1)O[N+](=O)[O-] (stereo not given)
stdout: 4.56

###

- TARGET OF ASSAY: Prostaglandin G/H synthase 1 (Homo sapiens, UniProt P23219)
- Sequence (P23219 whole entry): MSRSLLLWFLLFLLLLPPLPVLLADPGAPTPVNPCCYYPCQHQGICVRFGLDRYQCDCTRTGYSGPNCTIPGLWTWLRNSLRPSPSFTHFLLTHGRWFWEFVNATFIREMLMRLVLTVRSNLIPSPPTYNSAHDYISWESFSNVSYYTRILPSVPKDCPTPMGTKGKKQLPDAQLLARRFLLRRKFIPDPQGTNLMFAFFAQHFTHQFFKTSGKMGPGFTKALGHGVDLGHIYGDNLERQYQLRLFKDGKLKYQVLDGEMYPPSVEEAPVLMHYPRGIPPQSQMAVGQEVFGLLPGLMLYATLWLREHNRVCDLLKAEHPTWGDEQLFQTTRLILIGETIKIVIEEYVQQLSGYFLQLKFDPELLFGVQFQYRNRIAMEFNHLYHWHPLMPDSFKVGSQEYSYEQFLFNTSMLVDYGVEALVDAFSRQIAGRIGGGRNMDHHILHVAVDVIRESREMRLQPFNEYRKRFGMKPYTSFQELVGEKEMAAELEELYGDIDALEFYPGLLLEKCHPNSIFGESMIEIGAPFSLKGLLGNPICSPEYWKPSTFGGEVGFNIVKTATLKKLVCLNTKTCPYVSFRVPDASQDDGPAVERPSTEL
- EXPERIMENTAL DETAILS: Inhibition of COX1 in human whole blood
pIC50: −log10 of the molar value.
Rule: condition met for pIC50 not less than 6, condition not met for anything less.

Reference set, count: 6
CC(C(=O)OCCO[N+](=O)[O-])c1ccc(C(=O)c2cccs2)cc1 (centres undefined) : condition met
CC(COC(=O)C(C)c1ccc(C(=O)c2cccs2)cc1)O[N+](=O)[O-] (centres undefined) : condition met
CC(COC(=O)C(C)c1ccc2c(c1)[nH]c1ccc(Cl)cc12)O[N+](=O)[O-] (centres undefined) : condition not met
CC(C(=O)OCCO[N+](=O)[O-])c1ccc2c(c1)[nH]c1ccc(Cl)cc12 (centres undefined) : condition not met
CC(C(=O)O)c1ccc(C(=O)c2cccs2)cc1 (centres undefined) [SUPROFEN] : condition met
CC(COC(=O)C(C)c1cccc(C(=O)c2ccccc2)c1)O[N+](=O)[O-] (centres undefined) : condition met

stdin: Kindly determine if pIC50 recorded for CC(C(=O)OCC(CO[N+](=O)[O-])O[N+](=O)[O-])c1ccc(C(=O)c2cccs2)cc1 (centres undefined) is above or exactly 6.
stdout: condition met

stdin: Kindly determine if pIC50 recorded for CC(C(=O)OCCO[N+](=O)[O-])c1cccc(C(=O)c2ccccc2)c1 (centres undefined) is above or exactly 6.
stdout: condition met

stdin: Please tell me: is the molecule CC(C(=O)OCC(CO[N+](=O)[O-])O[N+](=O)[O-])c1cccc(C(=O)c2ccccc2)c1 (centres undefined) at or over 6 in terms of pIC50?
stdout: condition met
